Activity: recorded values
system: Rattus norvegicus; assay: Hypoglycemic activity in high fat diet-fed induced type 2 diabetic mellitus Wistar rat model assessed as blood glucose level at 60 mg/kg, ip by glucose tolerance test; assay type: functional

MOL | Activity
O=C(CSc1nc2cc(Oc3cccc4ccccc34)ccc2[nH]1)Nc1ccccc1C(=O)O | 15%
O=C(CSc1nc2cc(Oc3cccc4ccccc34)ccc2[nH]1)Nc1ccc(C(=O)O)cc1 | 19%
O=C(CSc1nc2cc(Oc3ccc4ccccc4c3)c(Cl)cc2[nH]1)Nc1ccc(C(=O)O)cc1 | 28%
O=C(CSc1nc2cc(Oc3ccc4ccccc4c3)ccc2[nH]1)Nc1ccc(C(=O)O)cc1 | 23%

---

biological target: Tyrosine-protein phosphatase non-receptor type 1 (Homo sapiens) (UniProt P18031); assay: Inhibition of PTP1B (unknown origin) at 40 uM using pNPP as substrate by spectrophotometric analysis
Sequence (P18031 whole entry): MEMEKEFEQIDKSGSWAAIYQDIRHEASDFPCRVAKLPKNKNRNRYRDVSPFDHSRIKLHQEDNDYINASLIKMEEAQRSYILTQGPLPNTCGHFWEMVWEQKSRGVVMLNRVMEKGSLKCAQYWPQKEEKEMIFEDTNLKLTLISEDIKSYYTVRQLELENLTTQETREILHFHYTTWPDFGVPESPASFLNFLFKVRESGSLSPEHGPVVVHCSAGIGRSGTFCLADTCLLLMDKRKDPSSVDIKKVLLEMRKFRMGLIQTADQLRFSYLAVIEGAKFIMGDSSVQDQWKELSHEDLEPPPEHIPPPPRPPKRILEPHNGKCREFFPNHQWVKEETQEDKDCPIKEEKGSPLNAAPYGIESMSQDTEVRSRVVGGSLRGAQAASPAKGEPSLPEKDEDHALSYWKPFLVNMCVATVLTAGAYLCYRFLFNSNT
inhibition: recorded values

MOL | inhibition (%)
O=C(CSc1nc2cc(Oc3cccc4ccccc34)ccc2[nH]1)Nc1ccc(C(=O)O)cc1 | 40
O=C(CSc1nc2cc(Oc3cccc4ccccc34)ccc2[nH]1)Nc1ccccc1C(=O)O | 45
CCOc1cc2nc(SCC(=O)Nc3ccc(C(=O)O)cc3)[nH]c2cc1Cl | 0
O=C(CSc1nc2cc(Oc3ccc4ccccc4c3)c(Cl)cc2[nH]1)Nc1ccc(C(=O)O)cc1 | 75
O=C(CSc1nc2cc(Oc3ccc4ccccc4c3)ccc2[nH]1)Nc1ccc(C(=O)O)cc1 | 30

Source: ChEMBL document CHEMBL4840340
